Biological target: Endoplasmin (Homo sapiens)
Sequence (P14625 whole entry): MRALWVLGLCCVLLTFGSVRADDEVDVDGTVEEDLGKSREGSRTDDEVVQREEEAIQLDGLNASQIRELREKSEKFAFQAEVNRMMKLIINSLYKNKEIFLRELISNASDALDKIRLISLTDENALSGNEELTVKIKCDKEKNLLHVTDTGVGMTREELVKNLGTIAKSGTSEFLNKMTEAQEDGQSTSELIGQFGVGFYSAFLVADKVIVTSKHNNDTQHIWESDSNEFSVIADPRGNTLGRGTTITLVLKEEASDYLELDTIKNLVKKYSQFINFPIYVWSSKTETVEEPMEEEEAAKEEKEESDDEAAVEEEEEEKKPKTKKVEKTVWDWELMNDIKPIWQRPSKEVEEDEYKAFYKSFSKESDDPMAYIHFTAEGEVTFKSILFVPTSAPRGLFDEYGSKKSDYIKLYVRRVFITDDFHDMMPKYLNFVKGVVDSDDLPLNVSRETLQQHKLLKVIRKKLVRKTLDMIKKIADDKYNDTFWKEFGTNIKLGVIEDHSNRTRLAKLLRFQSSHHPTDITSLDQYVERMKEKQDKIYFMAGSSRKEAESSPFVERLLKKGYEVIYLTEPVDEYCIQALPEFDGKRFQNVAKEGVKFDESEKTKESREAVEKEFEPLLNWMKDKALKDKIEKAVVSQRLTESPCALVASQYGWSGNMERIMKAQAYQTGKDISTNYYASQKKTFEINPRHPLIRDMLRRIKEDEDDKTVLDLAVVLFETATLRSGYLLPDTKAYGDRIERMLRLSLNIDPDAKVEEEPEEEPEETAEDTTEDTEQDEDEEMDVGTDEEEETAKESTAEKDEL
Assay metric: IC50

• CCOC(=O)Cn1nnc(-c2cc(C(C)C)c(O)cc2O)c1-c1cccc(NS(C)(=O)=O)c1 = 209 nM
• COC(=O)Cn1nnc(-c2cc(C(C)C)c(O)cc2O)c1-c1ccc(S(C)(=O)=O)cc1 = 89 nM
• COC(=O)Cn1nnc(-c2cc(C(C)C)c(O)cc2O)c1-c1cccc(NS(C)(=O)=O)c1 = 190 nM
• CCOC(=O)Cn1nnc(-c2cc(C(C)C)c(O)cc2O)c1-c1cccc(S(C)(=O)=O)c1 = 96.2 nM
• COC(=O)Cn1nnc(-c2cc(C(C)C)c(O)cc2O)c1-c1ccc(CN2CCCCC2)cc1 = 49.4 nM
• COC(=O)Cn1nnc(-c2cc(C(C)C)c(O)cc2O)c1-c1ccc(CN2CCOCC2)cc1 = 197 nM
• COC(=O)Cn1nnc(-c2cc(C(C)C)c(O)cc2O)c1-c1cccc(S(C)(=O)=O)c1 = 54.1 nM

* * *

Biological target: Heat shock protein HSP 90-alpha (Homo sapiens)
pIC50: −log10 of the molar value.
Decision: pIC50 compared against 7; not below it gives class 1, below it gives class 0.

• CCOC(=O)Cn1nnc(-c2cc(C(C)C)c(O)cc2O)c1-c1ccc2c(c1)OCCO2 = class 1
• CC(C)c1cc(-c2nnn(CC(=O)O)c2-c2cccc(S(C)(=O)=O)c2)c(O)cc1O = class 0
• CC(C)c1cc(-c2nnn(Cc3ccccc3)c2-c2ccc(S(C)(=O)=O)cc2)c(O)cc1O = class 1
• CCc1cc(-c2nnn(CC(=O)OC)c2-c2cccc(NS(C)(=O)=O)c2)c(O)cc1O = class 0
